Listed here: items and their measured Fold-Synergistic 1a (Q30E).
# System: HCV replicon, genotype-1a variant with glutamine 30 changed to glutamate in the NS5A protein
# assay_text: microbe, parasite or virus in culture
# Assay type: cell-based, HCV genotype 1a
# measurement_setup: HCV replicon genotype 1a Q30E (Q→E) variant; test compound titrated with an NS5A-targeting compound (BMS-790052 fixed at 200 nM); ranking of synergist activity

| compound | Fold-Synergistic 1a (Q30E) |
| --- | --- |
| CC1([C@H](NC(=O)C(C)(C)C2(O)CCC(F)(F)CC2)c2nc(-c3ccc(-c4ccc(-c5c[nH]c([C@@H](NC(=O)C(C)(C)C6(O)CCC(F)(F)CC6)C6(C)CC6)n5)cc4)cc3)c[nH]2)CC1 [Compound P-144] | >100 fold |
| C=C[C@H]1C[C@@]1(NC(=O)OC(C)(C)C)C(=O)N[C@H](c1nc(-c2ccc(-c3ccc(-c4c[nH]c([C@@H](NC(=O)[C@]5(NC(=O)OC(C)(C)C)C[C@@H]5C=C)C(C)(C)C)n4)cc3)cc2)c[nH]1)C(C)(C)C [Compound W-4] | >100 fold |
| O=C(Cc1ccccn1)N1CCC[C@H]1c1ncc(-c2ccc(-c3ccc(-c4cnc([C@@H]5CCCN5C(=O)Cc5ccccn5)[nH]4)cc3)cc2)[nH]1 [Compound S-149] | <10 fold |
| COC(=O)N[C@H](C(=O)N[C@H](c1nc(-c2ccc(-c3ccc(-c4c[nH]c([C@@H](NC(=O)[C@@H](NC(=O)OC)C5C[C@@H](C)O[C@H](C)C5)C(C)(C)C)n4)cc3)cc2)c[nH]1)C(C)(C)C)C1C[C@@H](C)O[C@H](C)C1 (stereo partly drawn) [Compound L-72] | >10 fold |

###

Listed here: items and their measured Fold-Synergistic 1a (Q30E).
# Tested on: HCV replicon, genotype-1a variant with glutamine 30 changed to glutamate in the NS5A protein
# assay_text: microbe, parasite or virus in culture
# Assay type: cell-based, HCV genotype 1a
# measurement_setup: HCV replicon genotype 1a Q30E (Q→E) variant; test compound titrated with an NS5A-targeting compound (BMS-790052 fixed at 200 nM); ranking of synergist activity

| compound | Fold-Synergistic 1a (Q30E) |
| --- | --- |
| CC(C)(C)[C@H](NC(=O)C1CC(=O)c2ccccc2C1)c1nc(-c2ccc(-c3ccc(-c4c[nH]c([C@@H](NC(=O)C5CC(=O)c6ccccc6C5)C(C)(C)C)n4)cc3)cc2)c[nH]1 (some centres unmarked) | >100 fold |
| CC(C)(C)[C@H](NC(=O)c1ccccc1O)c1nc(-c2ccc(-c3ccc(-c4c[nH]c([C@@H](NC(=O)c5ccccc5O)C(C)(C)C)n4)cc3)cc2)c[nH]1 | >100 fold |
| O=C(N[C@H](c1nc(-c2ccc(-c3ccc(-c4c[nH]c([C@@H](NC(=O)C(=O)N5CCC(F)(F)CC5)C5CC5)n4)cc3)cc2)c[nH]1)C1CC1)C(=O)N1CCC(F)(F)CC1 | >100 fold |
| CC(C)(C)[C@H](NC(=O)C1C2C3CCC(C3)C12)c1nc(-c2ccc(-c3ccc(-c4c[nH]c([C@@H](NC(=O)C5C6C7CCC(C7)C56)C(C)(C)C)n4)cc3)cc2)c[nH]1 (some centres unmarked) | >100 fold |
| COC(=O)N[C@H](C(=O)N[C@H](c1nc(-c2ccc3cc(-c4ccc(-c5cnc([C@@H](NC(=O)[C@@H](NC(=O)OC)C(C)C)C(C)C)[nH]5)cc4)ccc3c2)c[nH]1)C(C)C)C(C)C | <10 fold |

###

# Tested on: HCV replicon, genotype-1a variant with glutamine 30 changed to glutamate in the NS5A protein
# assay_text: microbe, parasite or virus in culture
# Type: cell-based, HCV genotype 1a
# measurement_setup: HCV replicon genotype 1a Q30E (Q→E) variant; test compound titrated with an NS5A-targeting compound (BMS-790052 fixed at 200 nM); ranking of synergist activity
observable: Fold-Synergistic 1a (Q30E)

| compound | observable | endpoint_result |
| --- | --- | --- |
| CC(C)[C@H](NC(=O)C(C)(C)F)c1nc(-c2ccc(-c3ccc(-c4c[nH]c([C@@H](NC(=O)C(C)(C)F)C(C)C)n4)cc3F)cc2)c[nH]1 | Fold-Synergistic 1a (Q30E) | >100 fold |
| O=C(CCC1CCCC1)N1CCC[C@H]1c1ncc(-c2ccc(-c3ccc(-c4cnc([C@@H]5CCCN5C(=O)CCC5CCCC5)[nH]4)cc3)cc2)[nH]1 | Fold-Synergistic 1a (Q30E) | >10 fold |
| Cc1onc(-c2ccccc2)c1C(=O)N1CCC[C@H]1c1ncc(-c2ccc(-c3ccc(-c4cnc([C@@H]5CCCN5C(=O)c5c(-c6ccccc6)noc5C)[nH]4)cc3)cc2)[nH]1 | Fold-Synergistic 1a (Q30E) | <10 fold |
| COC(=O)N[C@@H]1CCCCC1C(=O)N[C@H](c1nc(-c2ccc(-c3ccc(-c4c[nH]c([C@@H](NC(=O)C5CCCC[C@H]5NC(=O)OC)C(C)(C)C)n4)cc3)cc2)c[nH]1)C(C)(C)C (stereo partly shown) | Fold-Synergistic 1a (Q30E) | >100 fold |
| C[C@]1(C(=O)N2CCC[C@H]2c2ncc(-c3ccc(-c4ccc(-c5cnc([C@@H]6CCCN6C(=O)[C@@]6(C)CCC(F)(F)CO6)[nH]5)cc4)cc3)[nH]2)CCC(F)(F)CO1 | Fold-Synergistic 1a (Q30E) | <10 fold |
| COC(=O)N[C@H](C(=O)N[C@@H](C)c1nc(-c2ccc(-c3ccc(-c4c[nH]c([C@H](C)NC(=O)[C@@H](NC(=O)OC)C(C)C)n4)cc3)cc2)c[nH]1)C(C)C | Fold-Synergistic 1a (Q30E) | <10 fold |
| CC(C)(C)[C@H](NC(=O)C1(O)CCC1)c1nc(-c2ccc(-c3ccc(-c4c[nH]c([C@@H](NC(=O)C5(O)CCC5)C(C)(C)C)n4)cc3)cc2)c[nH]1 | Fold-Synergistic 1a (Q30E) | >100 fold |
| O=C(c1ccccn1)N1CCC[C@H]1c1ncc(-c2ccc(-c3ccc(-c4cnc([C@@H]5CCCN5C(=O)c5ccccn5)[nH]4)cc3)cc2)[nH]1 | Fold-Synergistic 1a (Q30E) | <10 fold |
| CC(C)(C)C(=O)N1C[C@H](F)C[C@H]1C(=O)N[C@H](c1nc(-c2ccc(-c3ccc(-c4c[nH]c([C@@H](NC(=O)[C@@H]5C[C@@H](F)CN5C(=O)C(C)(C)C)C(C)(C)C)n4)cc3)cc2)c[nH]1)C(C)(C)C | Fold-Synergistic 1a (Q30E) | >100 fold |
| COC(=O)N[C@@H](C(=O)N[C@@H](C)c1nc(-c2ccc(-c3ccc(-c4c[nH]c([C@H](C)NC(=O)[C@H](NC(=O)OC)C(C)C)n4)cc3)cc2)c[nH]1)C(C)C | Fold-Synergistic 1a (Q30E) | >10 fold |
| C[C@H]1CCN(C(=O)C2CCC(F)(F)CC2)[C@@H]1c1nc(-c2ccc(-c3ccc(-c4c[nH]c([C@@H]5[C@@H](C)CCN5C(=O)C5CCC(F)(F)CC5)n4)cc3)cc2)c[nH]1 | Fold-Synergistic 1a (Q30E) | >10 fold |
| CC(C)[C@H](NC(=O)C(=O)N1CCC(C(F)(F)F)CC1)c1nc(-c2ccc(-c3ccc(-c4c[nH]c([C@@H](NC(=O)C(=O)N5CCC(C(F)(F)F)CC5)C(C)C)n4)cc3)cc2)c[nH]1 | Fold-Synergistic 1a (Q30E) | >100 fold |
| COC(C)(C)C(=O)N[C@H](c1nc(-c2ccc(-c3ccc(-c4c[nH]c([C@@H](NC(=O)C(C)(C)OC)C(C)C)n4)c(F)c3)cc2)c[nH]1)C(C)C | Fold-Synergistic 1a (Q30E) | >100 fold |
| CCN(CC)C(=O)C(=O)N[C@H](c1nc(-c2ccc(-c3ccc(-c4c[nH]c([C@@H](NC(=O)C(=O)N(CC)CC)C(C)(C)C)n4)cc3)cc2)c[nH]1)C(C)(C)C | Fold-Synergistic 1a (Q30E) | >100 fold |
| CC(C)[C@H](NC(=O)[C@@]1(C)CC(F)(F)CO1)c1nc(-c2ccc(-c3ccc(-c4c[nH]c([C@@H](NC(=O)[C@@]5(C)CC(F)(F)CO5)C(C)C)n4)cc3)cc2)c[nH]1 | Fold-Synergistic 1a (Q30E) | >100 fold |
| CC(C)(C)[C@H](NC(=O)C(F)(F)C1(O)CCCCC1)c1nc(-c2ccc(-c3ccc(-c4c[nH]c([C@@H](NC(=O)C(F)(F)C5(O)CCCCC5)C(C)(C)C)n4)cc3)cc2)c[nH]1 | Fold-Synergistic 1a (Q30E) | >100 fold |
| CC(C)[C@H](NC(=O)c1cc(Cl)ccc1F)c1nc(-c2ccc(-c3ccc(-c4c[nH]c([C@@H](NC(=O)c5cc(Cl)ccc5F)C(C)C)n4)cc3F)cc2)c[nH]1 | Fold-Synergistic 1a (Q30E) | >100 fold |
| C=C1C[C@@H](C(=O)N[C@H](c2nc(-c3ccc(-c4ccc(-c5c[nH]c([C@@H](NC(=O)[C@@H]6CC(=C)CN6C(=O)OC(C)(C)C)C(C)(C)C)n5)cc4)cc3)c[nH]2)C(C)(C)C)N(C(=O)OC(C)(C)C)C1 | Fold-Synergistic 1a (Q30E) | >100 fold |
| CCC(C)[C@H](NC(=O)[C@H](NC(=O)OC)C(C)C)c1nc(-c2ccc(-c3ccc(-c4c[nH]c([C@@H](NC(=O)[C@H](NC(=O)OC)C(C)C)C(C)CC)n4)cc3)cc2)c[nH]1 (stereo partly shown) | Fold-Synergistic 1a (Q30E) | >10 fold |
